- System: Bel-7402
- Protocol Description: Antiproliferative activity against human Bel-7402 cells assessed as inhibition of cell growth incubated for 72 hrs by SRB assay
- Assay type: functional, cell-based
- Measurement Parameters: Bel-7402, 72 h
Endpoint Label: IC50 (µM)

- Mol Smiles: "CC[C@@]1(O)C(=O)OCc2c1cc1n(c2=O)Cc2cc3cc4c(cc3nc2-1)OCO4"
  Reading: 0.0218
- Mol Smiles: "CC[C@@]1(O)C(=O)OCc2c1cc1n(c2=O)Cc2c-1nc1cc3c(cc1c2-c1ccoc1)OCO3"
  Reading: 0.0038

---

- Protocol Description: Resistance index, ratio of IC50 for antiproliferative activity against etoposide/cisplatin combination-resistant human NCI-H446 cells to IC50 for antiproliferative activity against human NCI-H446 cells
- Assay type: functional
Known Ratio IC50 of a selection of compounds

- Compound: "CC[C@@]1(O)C(=O)OCc2c1cc1n(c2=O)Cc2cc3cc4c(cc3nc2-1)OCO4"
  Ratio IC50: 0.78
- Compound: "CC[C@@]1(O)C(=O)OCc2c1cc1n(c2=O)Cc2c-1nc1cc3c(cc1c2-c1ccoc1)OCO3"
  Ratio IC50: 0.63
- Compound: "COc1cc([C@@H]2c3cc4c(cc3[C@@H](O[C@@H]3O[C@@H]5CO[C@@H](C)O[C@H]5[C@H](O)[C@H]3O)[C@H]3COC(=O)[C@H]23)OCO4)cc(OC)c1O [ETOPOSIDE]"
  Ratio IC50: 19.28
- Compound: "COc1cccc2c1C(=O)c1c(O)c3c(c(O)c1C2=O)C[C@@](O)(C(=O)CO)C[C@@H]3O[C@H]1C[C@H](N)[C@H](O)[C@H](C)O1"
  Ratio IC50: 46.56
- Compound: "CCc1c2c(nc3ccc(OC(=O)N4CCC(N5CCCCC5)CC4)cc13)-c1cc3c(c(=O)n1C2)COC(=O)[C@]3(O)CC"
  Ratio IC50: 13

---

- Tested on: NCI-H446
- Protocol Description: Antiproliferative activity against Irinotecan-resistant human NCI-H446 cells assessed as inhibition of cell growth incubated for 72 hrs by SRB assay
- Format: functional, cell-based
- Measurement Parameters: NCI-H446, 72 h
pIC50: −log10 of the molar value.

- Molecule: "CC[C@@]1(O)C(=O)OCc2c1cc1n(c2=O)Cc2cc3cc4c(cc3nc2-1)OCO4"
  pIC50: 7.73
- Molecule: "COc1cc([C@@H]2c3cc4c(cc3[C@@H](O[C@@H]3O[C@@H]5CO[C@@H](C)O[C@H]5[C@H](O)[C@H]3O)[C@H]3COC(=O)[C@H]23)OCO4)cc(OC)c1O [ETOPOSIDE]"
  pIC50: 6.72
- Molecule: "CCc1c2c(nc3ccc(OC(=O)N4CCC(N5CCCCC5)CC4)cc13)-c1cc3c(c(=O)n1C2)COC(=O)[C@]3(O)CC"
  pIC50: 9.82
- Molecule: "CC[C@@]1(O)C(=O)OCc2c1cc1n(c2=O)Cc2c-1nc1cc3c(cc1c2-c1ccoc1)OCO3"
  pIC50: 9.30
- Molecule: "COc1cccc2c1C(=O)c1c(O)c3c(c(O)c1C2=O)C[C@@](O)(C(=O)CO)C[C@@H]3O[C@H]1C[C@H](N)[C@H](O)[C@H](C)O1"
  pIC50: 8.24

---

- Test system: SW-620
- Protocol Description: Antiproliferative activity against human SW-620 cells assessed as inhibition of cell growth incubated for 72 hrs by SRB assay
- Type: functional, cell-based
- Measurement Parameters: SW-620, 72 h
Endpoint Label: IC50 (nM)

- Mol Smiles: "CC[C@@]1(O)C(=O)OCc2c1cc1n(c2=O)Cc2c-1nc1cc3c(cc1c2-c1cccnc1)OCO3"
  Value Relation Sign: "="
  Reading: 0.17
- Mol Smiles: "CC[C@@]1(O)C(=O)OCc2c1cc1n(c2=O)Cc2c-1nc1cc3c(cc1c2-c1cnn(C)c1)OCO3"
  Value Relation Sign: "="
  Reading: 0.84
- Mol Smiles: "CC[C@@]1(O)C(=O)OCc2c1cc1n(c2=O)Cc2c-1nc1cc3c(cc1c2-c1cc(C(F)(F)F)cc(C(F)(F)F)c1)OCO3"
  Value Relation Sign: "="
  Reading: 1.44
- Mol Smiles: "CC[C@@]1(O)C(=O)OCc2c1cc1n(c2=O)Cc2cc3cc4c(cc3nc2-1)OCO4"
  Value Relation Sign: "="
  Reading: 0.93
- Mol Smiles: "CC[C@@]1(O)C(=O)OCc2c1cc1n(c2=O)Cc2c-1nc1cc3c(cc1c2-c1ccco1)OCO3"
  Value Relation Sign: "="
  Reading: 102
- Mol Smiles: "CC[C@@]1(O)C(=O)OCc2c1cc1n(c2=O)Cc2c-1nc1cc3c(cc1c2-c1ccc(CO)cc1)OCO3"
  Value Relation Sign: "="
  Reading: 0.28
- Mol Smiles: "CC[C@@]1(O)C(=O)OCc2c1cc1n(c2=O)Cc2cc3c(CN(C)C)c(O)ccc3nc2-1"
  Value Relation Sign: ">"
  Reading: 500
- Mol Smiles: "CC[C@@]1(O)C(=O)OCc2c1cc1n(c2=O)Cc2c-1nc1cc3c(cc1c2-c1ccoc1)OCO3"
  Value Relation Sign: "="
  Reading: 0.11

---

- System: 2008
- Protocol Description: Antiproliferative activity against human 2008 cells assessed as inhibition of cell growth incubated for 72 hrs by SRB assay
- Type: functional, cell-based
- Measurement Parameters: Homo sapiens, 2008, 72 h
pIC50: −log10 of the molar value.
Known pIC50 of a selection of compounds

- Mol Smiles: "CC[C@@]1(O)C(=O)OCc2c1cc1n(c2=O)Cc2c-1nc1cc3c(cc1c2-c1cc(C(F)(F)F)cc(C(F)(F)F)c1)OCO3"
  Tested System: 2008
  Value Relation Sign: "="
  pIC50: 7.30
- Mol Smiles: "CC[C@@]1(O)C(=O)OCc2c1cc1n(c2=O)Cc2c-1nc1cc3c(cc1c2-c1cccs1)OCO3"
  Tested System: 2008
  Value Relation Sign: "="
  pIC50: 8.39
- Mol Smiles: "CC[C@@]1(O)C(=O)OCc2c1cc1n(c2=O)Cc2cc3c(CN(C)C)c(O)ccc3nc2-1"
  Tested System: 2008
  Value Relation Sign: "<"
  pIC50: 6.30

---

- System: SW-620
- Protocol Description: Antiproliferative activity against human SW-620 cells assessed as inhibition of cell growth incubated for 72 hrs by SRB assay
- Assay type: functional, cell-based
- Measurement Parameters: SW-620, 72 h
pIC50: −log10 of the molar value.
Known pIC50 of a selection of compounds

- Mol Smiles: "CC[C@@]1(O)C(=O)OCc2c1cc1n(c2=O)Cc2c-1nc1cc3c(cc1c2-c1cccs1)OCO3"
  pIC50: 9.54
- Mol Smiles: "CC[C@@]1(O)C(=O)OCc2c1cc1n(c2=O)Cc2c-1nc1cc3c(cc1c2-c1ccncc1)OCO3"
  pIC50: 8.57
- Mol Smiles: "CC[C@@]1(O)C(=O)OCc2c1cc1n(c2=O)Cc2c-1nc1cc3c(cc1c2-c1ccsc1)OCO3"
  pIC50: 9.44

---

Known pIC50 of a selection of molecules
- Test system: 2008
- Protocol Description: Antiproliferative activity against human 2008 cells assessed as inhibition of cell growth incubated for 72 hrs by SRB assay
- Assay type: functional, cell-based
- Measurement Parameters: Homo sapiens, 2008, 72 h
pIC50: −log10 of the molar value.

- Mol Smiles: "CC[C@@]1(O)C(=O)OCc2c1cc1n(c2=O)Cc2c-1nc1cc3c(cc1c2-c1ccc(CO)cc1)OCO3"
  pIC50: 8.12
- Mol Smiles: "CC[C@@]1(O)C(=O)OCc2c1cc1n(c2=O)Cc2c-1nc1cc3c(cc1c2-c1cnn(C)c1)OCO3"
  pIC50: 7.65
- Mol Smiles: "CC[C@@]1(O)C(=O)OCc2c1cc1n(c2=O)Cc2c-1nc1cc3c(cc1c2-c1ccoc1)OCO3"
  pIC50: 7.99
- Mol Smiles: "CC[C@@]1(O)C(=O)OCc2c1cc1n(c2=O)Cc2cc3cc4c(cc3nc2-1)OCO4"
  pIC50: 7.43
- Mol Smiles: "CC[C@@]1(O)C(=O)OCc2c1cc1n(c2=O)Cc2c-1nc1cc3c(cc1c2-c1ccsc1)OCO3"
  pIC50: 7.41
- Mol Smiles: "CC[C@@]1(O)C(=O)OCc2c1cc1n(c2=O)Cc2c-1nc1cc3c(cc1c2-c1ccco1)OCO3"
  pIC50: 9.80
- Mol Smiles: "CC[C@@]1(O)C(=O)OCc2c1cc1n(c2=O)Cc2c-1nc1cc3c(cc1c2-c1ccncc1)OCO3"
  pIC50: 7.03
- Mol Smiles: "CC[C@@]1(O)C(=O)OCc2c1cc1n(c2=O)Cc2c-1nc1cc3c(cc1c2-c1cccnc1)OCO3"
  pIC50: 7.93
